Consider the following binders and their measured hNK2 selectivity ratio readings.
- MEASUREMENT_TARGET: T1, human NK2 Receptor (human, UniProt P21452 1-398)
- T1 construct: whole, on cells; calcium assays used intact CHO-hNK2 cells; also called hNK2R; hNK2
- T1 sequence (looked up): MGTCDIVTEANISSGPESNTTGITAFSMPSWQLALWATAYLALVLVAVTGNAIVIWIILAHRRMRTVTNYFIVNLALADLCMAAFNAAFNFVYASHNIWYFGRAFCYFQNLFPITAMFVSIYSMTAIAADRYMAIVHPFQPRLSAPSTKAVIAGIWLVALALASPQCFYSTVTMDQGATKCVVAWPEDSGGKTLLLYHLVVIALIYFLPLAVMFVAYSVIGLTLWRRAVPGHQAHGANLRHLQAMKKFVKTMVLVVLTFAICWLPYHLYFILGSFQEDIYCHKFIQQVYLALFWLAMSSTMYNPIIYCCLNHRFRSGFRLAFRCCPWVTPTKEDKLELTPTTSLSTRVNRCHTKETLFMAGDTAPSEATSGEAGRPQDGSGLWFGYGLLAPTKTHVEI
- TEST_NAME: ratio of Ki hNK1R/hNK2R from the radioligand competition assays
Write the answer as a number in ratio, unit excluded.

| BINDER | NUMBER |
| --- | --- |
| DRFVALM (HELM PEPTIDE1{D.R.F.V.[bAla].L.M.[am]}$$$$V2.0; N-terminus assumed; SMILES CSCC[C@H](NC(=O)[C@H](CC(C)C)NC(=O)CCNC(=O)[C@@H](NC(=O)[C@H](Cc1ccccc1)NC(=O)[C@H](CCCNC(=N)N)NC(=O)[C@@H](N)CC(=O)O)C(C)C)C(N)=O, synthetic heptapeptide analog of neurokinin A, Fmoc solid-phase synthesis; also called Compound I; Cmpd I) [Heptapeptide analog I, Asp-Arg-Phe-Val-(β-Ala)-Leu-Met-NH2] | 108 |

Would you kindly look at the next entry?
May I ask what hNK2 selectivity ratio has been recorded for DKFVALX (HELM PEPTIDE1{D.K.F.V.[bAla].L.[Nle].[am]}$$$$V2.0; N-terminus assumed; SMILES CCCC[C@H](NC(=O)[C@H](CC(C)C)NC(=O)CCNC(=O)[C@@H](NC(=O)[C@H](Cc1ccccc1)NC(=O)[C@H](CCCCN)NC(=O)[C@@H](N)CC(=O)O)C(C)C)C(N)=O, synthetic heptapeptide analog of neurokinin A, Fmoc solid-phase synthesis; also called Compound G; Cmpd G) [Heptapeptide analog G, Asp-Lys-Phe-Val-(β-Ala)-Leu-Nle-NH2] ?
189
